Tested on: P12-Ichikawa
Assay: AUC of viability dose-response curve (% viability x log10 dose units); higher = less sensitive
Conditions: HPLM + 10% dialyzed FBS; 48 h
// returns Not satisfied unless AUC of viability dose-response curve is strictly below 400, in which case Satisfied

# compound, class
records = [
    ("CN(C/C=C/C#CC(C)(C)C)Cc1cccc2ccccc12", "Not satisfied"),
    ("CCc1c(C(=O)C(N)=O)c2c(OCC(=O)O)cccc2n1Cc1ccccc1", "Not satisfied"),
    ("Cn1c(Nc2ccc(C(F)(F)F)cc2)nc2cc(Oc3ccnc(-c4nc(C(F)(F)F)c[nH]4)c3)ccc21", "Not satisfied"),
    ("C[C@@]12O[C@@H](C[C@]1(O)CO)n1c3ccccc3c3c4c(c5c6ccccc6n2c5c31)CNC4=O", "Satisfied"),
    ("CCOC(=O)N1CCN(/[N+]([O-])=N/Oc2ccc([N+](=O)[O-])cc2[N+](=O)[O-])CC1", "Not satisfied"),
    ("C1CCC(C(CC2CCCCN2)C2CCCCC2)CC1 (stereo unspecified)", "Not satisfied"),
    ("C[C@@H]1COCCN1C\\2=C\\C(=O)N\\3CC[C@H](N(CC4=CN=CC(=C4)Cl)C3=N2)C(F)(F)F", "Not satisfied"),
    ("CC(C)Nc1cc(C(F)(F)F)cc2nc(NC(=O)c3cccnc3)nn12", "Satisfied"),
    ("CC(=O)CC(C1=CC=CC=C1)C/2=C(O)/C3=CC=CC=C3OC2=O (stereo unspecified)", "Not satisfied"),
    ("C[N]1C2=C(SC(=C2)[S+](C)[O-])C\\3=C1C(=O)N(CC4=CC(=CC=C4)N)\\N=C3 (stereo unspecified)", "Not satisfied"),
    ("CC(=O)N1CCN(c2ccc(OC[C@H]3CO[C@](Cn4ccnc4)(c4ccc(Cl)cc4Cl)O3)cc2)CC1", "Not satisfied"),
    ("CCOC(=O)[C@H](CCc1ccccc1)N[C@@H](C)C(=O)N1CCC[C@H]1C(=O)O", "Not satisfied"),
    ("CC(C)Oc1cc(Nc2nc(N[C@@H](C)c3ccc(F)cn3)ncc2Cl)n[nH]1", "Satisfied"),
    ("COc1cc(Nc2ncc(F)c(Nc3ccc4c(n3)NC(=O)C(C)(C)O4)n2)cc(OC)c1OC", "Satisfied"),
    ("CC(C)C[C@H](NC(=O)CNC(=O)c1cc(Cl)ccc1Cl)B1OC(=O)CC(CC(=O)O)(C(=O)O)O1 (stereo partly specified)", "Satisfied"),
    ("Cc1cccc(C)c1OCC(=O)N[C@@H](Cc1ccccc1)[C@@H](O)C[C@H](Cc1ccccc1)NC(=O)[C@H](C(C)C)N1CCCNC1=O", "Not satisfied"),
    ("CCC(=O)OCC(=O)[C@@]1(OC(=O)CC)[C@@H](C)C[C@H]2[C@@H]3CCC4=CC(=O)C=C[C@]4(C)[C@@]3(F)[C@@H](O)C[C@@]21C", "Satisfied"),
    ("Oc1ccc(C2CCN(c3ccnc4ccccc34)CC2)cc1O", "Not satisfied"),
    ("CC\\1=C(C(=O)N(\\C=C1)C2=CC=C(C=C2)C3=NC=CO3)/C4=CC5=CN=C(N)N=C5C=C4", "Not satisfied"),
    ("COc1cc(C(=O)N2CCC(N3CCN(C)CC3)CC2)ccc1Nc1ncc2c(n1)N(C)c1ccccc1C(=O)N2C", "Not satisfied"),
    ("C[C@H]1C[C@H]2[C@@H]3CCC4=CC(=O)C=C[C@]4(C)[C@@]3(F)[C@@H](O)C[C@]2(C)[C@@]1(O)C(=O)CO", "Satisfied"),
    ("O=C(NC[C@H]1CN(c2ccc(N3CCOCC3=O)cc2)C(=O)O1)c1ccc(Cl)s1", "Satisfied"),
    ("CC(=O)N1CCN(c2ccc(OCc3nn(C)c(C)c3-c3cccc4c(CCCOc5cccc6ccccc56)c(C(=O)O)n(Cc5cccnc5)c34)cc2)CC1", "Not satisfied"),
    ("Cc1ncc(OC[C@@]2(c3cccc(F)c3)C[C@H]2C(=O)Nc2ccc(F)cn2)c(C)n1", "Not satisfied"),
    ("OC(=O)\\C1=C\\N(C2=CC=C(F)C=C2)C3=C(C=C(F)C(=C3)N4CCNCC4)C1=O", "Not satisfied"),
    ("Cc1cccc(-c2nn(C(=S)Nc3ccccc3)cc2-c2ccnc3ccccc23)n1", "Not satisfied"),
    ("CC(=O)NC(CS)C(=O)O (stereo unspecified)", "Satisfied"),
    ("COc1cc(C)c(Sc2cnc(NC(=O)c3ccc(CNC(C)C(C)(C)C)cc3)s2)cc1C(=O)N1CCN(C(C)=O)CC1 (stereo unspecified)", "Not satisfied"),
]

###

Tested on: P12-Ichikawa
Assay: cell viability relative to DMSO control; higher = less cytotoxic
Details: HPLM + 10% dialyzed FBS; 48 h; 0.00234 µM

# compound, system.name, u, cell viability
records = [
    ("OC(=O)\\C1=C\\N(C2=CC=C(F)C=C2)C3=C(C=C(F)C(=C3)N4CCNCC4)C1=O", "P12-Ichikawa", "%", 116),
    ("Cc1ccc(O)c(C(CCN(C(C)C)C(C)C)c2ccccc2)c1.Cl (stereo not drawn)", "P12-Ichikawa", "%", 122),
    ("N=C(N)NC(=O)c1nc(Cl)c(N)nc1N", "P12-Ichikawa", "%", 116),
]

###

System: SEM cells
Assay: cell viability relative to DMSO control; higher = less cytotoxic
Details: HPLM + 10% dialyzed FBS; 48 h; 0.00702 µM
Entries and their cell viability values follow.
readout.label: cell viability (%)

# compound, readout.number
measured = [
    ("ClC1=CC(=CC=C1)N2CCN(CCCN3\\N=C4\\C=C/C=C\\N4C3=O)CC2", 107),
    ("Oc1ccc(/C=C/c2cc(O)cc(O)c2)cc1", 106),
    ("CCC(=O)OCC(=O)[C@@]1(OC(=O)CC)[C@@H](C)C[C@H]2[C@@H]3CCC4=CC(=O)C=C[C@]4(C)[C@@]3(F)[C@@H](O)C[C@@]21C", 93.2),
    ("O=C(NC[C@H](O)CN1CCc2ccccc2C1)c1cc(NC2COC2)ncn1", 91.5),
    ("O=C(/C=C/c1cccc([S+](=O)([O-])Nc2ccccc2)c1)NO", 122),
    ("OCc1ccc(-c2nn(Cc3ccccc3)c3ccccc23)o1", 124),
    ("CC1(C)CCC(=C(CN2CCN(CC2)C3=CC=C(C=C3)C(=O)N[S+]([O-])(=O)C4=CC(=C(N[C@H](CCN5CCOCC5)CSC6=CC=CC=C6)C=C4)[S+]([O-])(=O)C(F)(F)F)\\C1)/C7=CC=C(Cl)C=C7", 126),
    ("O=C(/C=C/c1c(C(=O)[O-])[nH]c2cc(Cl)cc(Cl)c12)Nc1ccccc1", 122),
    ("CNC1[C@@H](O)C(O[C@@H]2C(O)C(O[C@H]3O[C@H]([C@@H](C)NC)CC[C@H]3N)[C@@H](N)C[C@H]2N)OC[C@]1(C)O (stereo not given in full)", 99.2),
    ("CC(=O)N1CCN(c2ccc(OC[C@H]3CO[C@](Cn4ccnc4)(c4ccc(Cl)cc4Cl)O3)cc2)CC1", 104),
]

###

Tested on: SEM cells
Experiment: AUC of viability dose-response curve (% viability x log10 dose units); higher = less sensitive
Settings: RPMI 5 mM glucose + 10% dialyzed FBS; 48 h
Each item that follows carries a reported AUC of viability dose-response curve.
readout.label: AUC of viability dose-response curve

# compound, readout.label, readout.number
records = [
    ("Cn1c(Nc2ccc(C(F)(F)F)cc2)nc2cc(Oc3ccnc(-c4nc(C(F)(F)F)c[nH]4)c3)ccc21", "AUC of viability dose-response curve", 395),
    ("Cc1ccc(CN2CCNCC2)cc1NC(=O)CNc1ccc(F)c(F)c1", "AUC of viability dose-response curve", 431),
    ("CC(C)(C)C(=O)Oc1ccc([S+](=O)([O-])Nc2ccccc2C(=O)NCC(=O)O)cc1", "AUC of viability dose-response curve", 471),
    ("CCC1(c2ccc(N)cc2)CCC(=O)NC1=O (stereo not given)", "AUC of viability dose-response curve", 401),
    ("O=C(NC[C@H]1CN(c2ccc(N3CCOCC3=O)cc2)C(=O)O1)c1ccc(Cl)s1", "AUC of viability dose-response curve", 444),
]

###

Tested on: NOMO1
Assay: cell viability relative to DMSO control; higher = less cytotoxic
Conditions: RPMI 5 mM glucose + 10% FBS; 48 h; 15.4 µM

# line.notation, cell viability
data = [
    ("CC(C)[C@@H](C[S+](=O)([O-])C(C)C)N1C(=O)[C@@](C)(CC(=O)O)C[C@H](c2cccc(Cl)c2)[C@H]1c1ccc(Cl)cc1", "19.5%"),
    ("OCc1ccc(-c2nn(Cc3ccccc3)c3ccccc23)o1", "38%"),
    ("COc1cc2c(Oc3ccc(NC(=O)C4(C(=O)Nc5ccc(F)cc5)CC4)cc3F)ccnc2cc1OCCCN1CCOCC1", "36.9%"),
    ("CN1\\C(=C(\\O)C2=C(C=CS2)[S+]1([O-])=O)C(=O)NC3=CC=CC=N3", "93.1%"),
]
